Taken from patent US20190203240A1.

Test system: NF-κB
Assay: NF-κB activity in NIH3T3-KBF-Luc cells stimulated with TNFα (luciferase)
Format: cell-based
Conditions: 25 μM, +30 ng/ml TNFα
Listing: RLU 1 of selected molecules
Expressed in RLU, but write only the number.

C[C@@H]1O[C@@H](Oc2cc(O)cc3c2C(=O)CC(c2ccc(O)cc2)O3)[C@H](O)[C@H](O)[C@H]1O (mixture of isomers) [NR1, Naringenin-5-O-α-L-rhamnoside] ... 151080
O=c1cc(-c2ccccc2)oc2cc(O)cc(O)c12 ... 273410
CC1O[C@@H](Oc2cc(O)cc3oc(-c4ccccc4)cc(=O)c23)C(O)C(O)[C@H]1O (stereo partly drawn) [CR2, Chrysin-5-O-α-L-rhamnoside] ... 170390
CC1O[C@@H](Oc2cc(O[C@@H]3OC(C)[C@H](O)C(O)C3O)c3c(=O)cc(-c4ccccc4)oc3c2)C(O)C(O)[C@H]1O (stereo partly drawn) [CR1, Chrysin-di-5,7-O-α-L-rhamnoside] ... 175140
COc1ccc(-c2cc(=O)c3c(O)cc(O)cc3o2)cc1O ... 448530
COc1ccc(-c2coc3cc(O[C@@H]4O[C@@H](C)[C@H](O)[C@@H](O)[C@H]4O)cc(O[C@@H]4O[C@@H](C)[C@H](O)[C@@H](O)[C@H]4O)c3c2=O)cc1 [BR1, Biochanin A-5,7-di-O-α-L-rhamnoside] ... 211660

Now look at this entry.
Request: Item COc1ccc(-c2coc3cc(O)cc(O[C@@H]4O[C@@H](C)[C@H](O)[C@@H](O)[C@H]4O)c3c2=O)cc1 [BR2, Biochanin A 5-O-α-L-rhamnoside] with NF-κB - RLU 1?
Result: 237390

---

Test system: STAT3
Assay: STAT3 activity in HeLa-STAT3-luc cells stimulated with IFN-γ (luciferase)
Type: cell-based
Conditions: 25 μM, +IFNγ 25 U/ml
Measured quantity: RLU 2

O=c1cc(-c2ccccc2)oc2cc(O)cc(O)c12 [Chrysin] ... 22367 RLU
COc1cc(C2Oc3cc([C@H]4Oc5cc(O)cc(O)c5C(=O)[C@@H]4O)ccc3OC2CO)ccc1O (stereo partly drawn) [Silibinin] ... 11170 RLU

Request: Fill in: RLU 2 of COc1ccc(-c2cc(=O)c3c(O)cc(O)cc3o2)cc1O [Diosmetin] is ___
Result: 14303 RLU

---

Test system: STAT3
Test: STAT3 activity in HeLa-STAT3-luc cells stimulated with IFN-γ (luciferase)
Type: cell-based
Conditions: 25 μM, +IFNγ 25 U/ml
Procedure: HeLa-STAT3-luc cells were stably transfected with the plasmid 4×M67 pTATA TK-Luc. Cells (20×10^3 cells/ml) were seeded 96-well plate the day before the assay. Then the cells were treated with the test substances for […] and then stimulated with IFN-γ 25 IU/ml. […] Luciferase activity was measured using GloMax 96 microplate luminometer (Promega) following the instructions of the luciferase assay kit (Promega, Madison, Wis., USA). […]
RLU specific for assorted molecules
State the answer as a number, implicitly in RLU.

Below are worked cases with known answers.
COc1ccc(-c2coc3cc(O)cc(O[C@@H]4O[C@@H](C)[C@H](O)[C@@H](O)[C@H]4O)c3c2=O)cc1 [BR2, Biochanin A 5-O-α-L-rhamnoside] ... 8825
O=c1cc(-c2ccccc2)oc2cc(O)cc(O)c12 ... 20627
COc1ccc(-c2coc3cc(O[C@@H]4O[C@@H](C)[C@H](O)[C@@H](O)[C@H]4O)cc(O[C@@H]4O[C@@H](C)[C@H](O)[C@@H](O)[C@H]4O)c3c2=O)cc1 [BR1, Biochanin A-5,7-di-O-α-L-rhamnoside] ... 8878
C[C@@H]1O[C@@H](Oc2cc(O)cc3c2C(=O)CC(c2ccc(O)cc2)O3)[C@H](O)[C@H](O)[C@H]1O (mixture of isomers) [NR1, Naringenin-5-O-α-L-rhamnoside] ... 7319
COc1ccc(-c2cc(=O)c3c(O)cc(O)cc3o2)cc1O ... 13895

Request: # query: RLU specific of entry COc1cc(C2Oc3cc([C@H]4Oc5cc(O)cc(O)c5C(=O)[C@@H]4O)ccc3OC2CO)ccc1O (stereo partly drawn)
Result: 9755
